Assay: HPLC log P determination
Format: physicochemical
Conditions: alkane/water partition, estimated by HPLC retention; neutral; HPLC, water/acetonitrile mobile phase; read-out: HPLC log P (neutral)
measurement-kind: chromatographic logP
# print the numeric value only

For this compound ( Cc1ccccc1C1=NC(c2ccc(-c3ccc(OC(F)(F)F)cc3)cc2)CC1 (stereo not shown) ), measured chromatographic logP is 6.05

====

Test: HPLC log P determination
Format: physicochemical
Details: alkane/water partition, estimated by HPLC retention, pH 2.3; read-out: HPLC log P (pH 2.3)
Method: * log P=[…] logarithm to base 10 of the alkane/water partition coefficient, determined by HPLC analysis using water/acetonitrile as mobile phase on 125×4.0 mm Kromasil […] (5 μm); flow rate: 1.5 ml/min.
measurement-kind: chromatographic logP
# print the numeric value only

Cc1ccccc1C1=NC(c2ccc(-c3ccc(OC(F)(F)C(F)F)cc3)cc2)CC1 (centres unmarked)	3.02

// below: chromatographic logP requested for another molecule
For this molecule ( Cc1ccccc1C(=O)CCC(NC(=O)OC(C)(C)C)c1ccc(-c2ccc(OC(F)(F)C(F)F)cc2)cc1 (centres unmarked) ), measured chromatographic logP is 5.05
